Cited source: ChEMBL document CHEMBL1135512

Entries and their pKa
METHOD NOTES: Dissociation constant (pKa)
Format: physicochemical
Response field accepts a number only; no unit should be typed.

Use these answered entries as a reference point.
CNC1(C)C2CCC(C2)C1(C)C (stereo not drawn); 11
CN(C)CCNC1CC2c3ccccc3C1c1ccccc12 (stereo not drawn); 9.48

Entry under review: COc1ccc(CCN(C)CCCC(C#N)(c2ccc(OC)c(OC)c2)C(C)C)cc1OC (stereo not drawn) . Reported pKa?
8.29

Entry under review: CN(C)CC1C2c3ccccc3C(c3ccccc32)C1CN(C)C (stereo in doubt; 5) . Reported pKa?
9.19

Entry under review: CC1C2c3ccccc3C(c3ccccc32)C1CN(C)C (stereo not drawn) . Reported pKa?
8.99

Entry under review: CN(C)C(=O)C1C2c3ccccc3C(c3ccccc32)C1C(=O)N(C)C (stereo in doubt; 17) . Reported pKa?
-1.34

Entry under review: CC1C2c3ccccc3C(c3ccccc32)C1C(N)=O (stereo not drawn) . Reported pKa?
-0.89

Entry under review: CN(C)CC1C2c3ccccc3C(c3ccccc32)C1COC(=O)N(C)C (stereo not drawn) . Reported pKa?
8.99

Entry under review: CC1C2c3ccccc3C(c3ccccc32)C1C(=O)Nc1cccnc1 (stereo not drawn) . Reported pKa?
4.14

Entry under review: CN(C)CC1=C(CN(C)C)C2c3ccccc3C1c1ccccc12 . Reported pKa?
8.66

Entry under review: c1ccc2c(c1)C1c3ccccc3C2C2CNCC12 (stereo not drawn) . Reported pKa?
10.2

Entry under review: O=C(NCCCCCCCCCCNC(=O)C1=CC2c3ccccc3C1c1ccccc12)C1=CC2c3ccccc3C1c1ccccc12 . Reported pKa?
-1.14

Entry under review: CC(CN1c2ccccc2Sc2ccccc21)N(C)C (stereo not drawn) . Reported pKa?
8.89

Entry under review: CN(C)C1CC2c3ccccc3C1c1ccccc12 (stereo not drawn) . Reported pKa?
8.67

Entry under review: CC1C2c3ccccc3C(c3ccccc32)C1C(=O)Nc1ccccn1 (stereo not drawn) . Reported pKa?
5.27

Entry under review: CN(C)C1C2c3ccccc3C(c3ccccc32)C1C(=O)O (stereo not drawn) . Reported pKa?
8.3

Entry under review: CNCC1CC2c3ccccc3C1c1ccccc12 (stereo not drawn) . Reported pKa?
10.2

Entry under review: CC1C2c3ccccc3C(c3ccccc32)C1C(=O)Nc1ccncc1 (stereo not drawn) . Reported pKa?
5.27

Entry under review: NC(=O)C1C2c3ccccc3C(c3ccccc32)C1C(N)=O (stereo not drawn) . Reported pKa?
-0.96

Entry under review: CN(C)CC1=CC2c3ccccc3C1c1ccccc12 . Reported pKa?
8.04

Entry under review: COC(=O)C1C2c3ccccc3C(c3ccccc32)C1C(=O)N(C)C (stereo not drawn) . Reported pKa?
-1.65

Entry under review: CN(C)CC1C2c3ccccc3C(c3ccccc32)C1CO (stereo not drawn) . Reported pKa?
8.86

Entry under review: CCOC(=O)C1C2c3ccccc3C(c3ccccc32)C1N(C)C (stereo not drawn) . Reported pKa?
7.48

###

METHOD NOTES: pKa of the compound
Assay type: physicochemical
OUTCOME MEASURE: pKa
Response field accepts a number only; no unit should be typed.

Entry under review: NCC1C2c3ccccc3C(c3ccccc32)C1CN (stereo unspecified) . Reported pKa?
10.1

###

METHOD NOTES: Partition coefficient (logD7.0)
Format: physicochemical
APPLIED CONDITIONS: octanol/water, pH 7
OUTCOME MEASURE: logD
Response field accepts a number only; no unit should be typed.

Entry under review: NCC1C2c3ccccc3C(c3ccccc32)C1CN (stereo unspecified) . Reported logD?
-3.27
